Ref: ChEMBL document CHEMBL1201862

# Tested on: HL-60
# assay_summary: NCI tumour cell line growth inhibition, 48 h
Calls of active or inactive are those of the source. Cut-off read from the data, not from the text of the source: active = GI50 up to about 1.1 µM and inactive = higher. Non-standard residues stand in square brackets, D forms with d. Residues, ends and D or L forms follow the SMILES beside them. ξ: configuration not given here. *: point of attachment. NMeY = CN[C@@H](Cc1ccc(O)cc1)C(=O)O; Cbz = O=C(OCc1ccccc1)*; ξA = CC(N)C(=O)O
Allowed answers: 1 (yes) = active, 0 (no) = inactive

CN1C(=O)C2C(C1=O)C1(O)c3ccccc3C2(N)c2ccccc21 (stereo unspecified) :: 0 (no)
CC(C)OC(=O)Nc1cccc(Cl)c1 :: 0 (no)
COc1ccc(C[C@@H](C(=O)NCC(N)=O)N(C)C(=O)[C@@H]2CCCN2C(=O)[C@H](CC(C)C)NC(=O)C(C)NC(=O)OCc2ccccc2)cc1 (stereo partly specified) (Cbz-[ξA]LP[NMeY](Me)G-NH2) :: 0 (no)
COC(=O)[C@]12CC=C3O[C@@H]4OC5(CCCCC5)O[C@@H]4C3[C@@H]1C(=O)CCC2=O (stereo partly specified) :: 0 (no)
Cc1ccc([N+](=O)[O-])c2c(NCCCN(C)C)ccnc12 :: 0 (no)

Ask: Recorded test call requested for COc1ccc(C2C3CCc4ccccc4C3=NN2S(=O)(=O)c2ccc(/C=C/C(=O)O)cc2)cc1 (stereo unspecified)
Reply: 0 (no)

Ask: Recorded test call requested for "CC(=O)Oc1cc(OC(C)=O)c2c(c1C)CC[C@@H]1[C@@H]2CC[C@]2(C)[C@@H](OC(C)=O)CC[C@@H]12"
Reply: 0 (no)

Ask: Recorded test call requested for COc1ccc(C2S/C(=C\c3ccccc3)C(=O)N2NC(=O)Cc2ccccc2)cc1 (stereo unspecified)
Reply: 0 (no)

Ask: Recorded test call requested for CC1OC(OC2CC(O)(C(=O)CO)Cc3c(O)c4c(c(O)c32)C(=O)c2ccccc2C4=O)CC(N)C1O (stereo unspecified)
Reply: 1 (yes)

Ask: Recorded test call requested for Cc1cccc2c1CC1(Cc3ccccc3C1=O)C2=O (stereo unspecified)
Reply: 0 (no)

Ask: Recorded test call requested for COC(=O)C(Cc1ccccc1)NC(=O)C(CCCNC(=N)N)NC(=O)OCc1ccccc1 (stereo unspecified)
Reply: 0 (no)
